Reference for the values: ChEMBL document CHEMBL1126018

# assayed_target: Adrenergic receptor alpha-1 (Rattus norvegicus) (UniProt P15823+P23944+P43140)
# experiment_summary: In vivo inhibitory activity in rats against elevation of blood pressure caused by phenylephrine (30 ug/kg, iv) through Alpha-1 adrenergic receptor, after 1 hr oral administration at dose of 10 mg/kg
# Format: functional, organism-based
# Design: dose 10 mg/kg
Give inhibition for every item shown.
The answer consists of two parts: a number and, after it, its unit.

A selection of reference data follows.
smiles_entry=N#CC(=C1CCN(CCn2nc3n(c2=O)CCCC3)CC1)c1ccc(F)cc1 assay_metric=inhibition measurement=2%
smiles_entry=O=C(c1ccc(F)cc1)C1CCN(CCn2c(=O)nc3n(c2=O)CCCCC3)CC1 assay_metric=inhibition measurement=15%
smiles_entry=O=c1nc2n(c(=O)n1CCN1CCC(=C(c3ccc(F)cc3)c3ccc(F)cc3)CC1)CCC2 assay_metric=inhibition measurement=8%

Please supply inhibition for each of the following items, keeping them in order.
1. O=c1n(CCN2CCC(=C(c3ccc(F)cc3)c3ccc(F)cc3)CC2)nc2ccccn12
2. O=c1n(CCN2CCC(=C(c3ccc(F)cc3)c3ccc(F)cc3)CC2)nc2n1CCSC2
3. O=C(c1ccc(F)cc1)C1CCN(CCn2c(=O)[nH]c3ccccc3c2=O)CC1
4. O=C(c1ccc(F)cc1)C1CCN(CCCn2c(=O)nc3n(c2=O)CCCC3)CC1
5. O=c1n(CCN2CCC(=C(c3ccc(F)cc3)c3ccc(F)cc3)CC2)nc2n1CCOC2

Response:
6%
4%
91%
53%
10%

Please supply inhibition for each of the following items, keeping them in order.
1. O=C(c1ccc(F)cc1)C1CCN(CCn2nc3n(c2=O)CCOC3)CC1
2. O=C(c1ccc(F)cc1)C1CCN(CCn2c(=O)nc3n(c2=O)CCC3)CC1
3. Cc1nc2sccn2c(=O)c1CCN1CCC(=C(c2ccc(F)cc2)c2ccc(F)cc2)CC1
4. O=c1n(CCN2CCC(=C(c3ccccc3)c3ccc(F)cc3)CC2)nc2n1CCCCC2

Response:
1. 36%
2. 23%
3. 7%
4. 7%

Please supply inhibition for each of the following items, keeping them in order.
1. O=C(c1ccc(F)cc1)C1(O)CCN(CCn2nc3n(c2=O)CCCC3)CC1
2. O=c1n(CCN2CCC(=C(c3ccccc3)c3ccccc3)CC2)nc2n1CCCCC2

Response:
["15%", "3%"]

====

# assayed_target: Serotonin 2 (5-HT2) receptor (Rattus norvegicus) (UniProt P30994+P08909+P14842)
# Sequence (P08909 whole entry, looked up): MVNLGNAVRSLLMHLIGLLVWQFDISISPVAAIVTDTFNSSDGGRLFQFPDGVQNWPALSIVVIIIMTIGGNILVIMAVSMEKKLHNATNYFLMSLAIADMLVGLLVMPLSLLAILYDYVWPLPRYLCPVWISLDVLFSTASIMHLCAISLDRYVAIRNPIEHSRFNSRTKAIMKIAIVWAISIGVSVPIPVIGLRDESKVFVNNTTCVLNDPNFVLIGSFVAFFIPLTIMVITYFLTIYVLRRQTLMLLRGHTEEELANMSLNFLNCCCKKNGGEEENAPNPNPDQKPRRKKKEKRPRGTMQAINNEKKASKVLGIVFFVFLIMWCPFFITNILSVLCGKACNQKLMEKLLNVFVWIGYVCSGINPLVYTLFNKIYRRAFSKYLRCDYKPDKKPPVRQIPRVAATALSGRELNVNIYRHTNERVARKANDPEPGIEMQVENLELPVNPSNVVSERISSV
# Sequence (P14842 whole entry, looked up): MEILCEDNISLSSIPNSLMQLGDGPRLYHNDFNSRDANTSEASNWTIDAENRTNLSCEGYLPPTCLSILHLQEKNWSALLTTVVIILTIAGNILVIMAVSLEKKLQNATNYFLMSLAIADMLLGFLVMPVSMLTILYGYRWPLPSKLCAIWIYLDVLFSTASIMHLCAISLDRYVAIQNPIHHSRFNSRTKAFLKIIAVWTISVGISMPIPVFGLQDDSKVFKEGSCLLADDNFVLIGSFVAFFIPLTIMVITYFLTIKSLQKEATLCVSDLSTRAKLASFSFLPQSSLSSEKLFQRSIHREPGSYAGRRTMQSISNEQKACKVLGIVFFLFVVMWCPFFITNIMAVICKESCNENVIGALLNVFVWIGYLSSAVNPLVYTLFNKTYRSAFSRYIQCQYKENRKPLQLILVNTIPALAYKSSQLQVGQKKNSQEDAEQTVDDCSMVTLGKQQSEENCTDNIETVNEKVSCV
# Sequence (P30994 whole entry, looked up): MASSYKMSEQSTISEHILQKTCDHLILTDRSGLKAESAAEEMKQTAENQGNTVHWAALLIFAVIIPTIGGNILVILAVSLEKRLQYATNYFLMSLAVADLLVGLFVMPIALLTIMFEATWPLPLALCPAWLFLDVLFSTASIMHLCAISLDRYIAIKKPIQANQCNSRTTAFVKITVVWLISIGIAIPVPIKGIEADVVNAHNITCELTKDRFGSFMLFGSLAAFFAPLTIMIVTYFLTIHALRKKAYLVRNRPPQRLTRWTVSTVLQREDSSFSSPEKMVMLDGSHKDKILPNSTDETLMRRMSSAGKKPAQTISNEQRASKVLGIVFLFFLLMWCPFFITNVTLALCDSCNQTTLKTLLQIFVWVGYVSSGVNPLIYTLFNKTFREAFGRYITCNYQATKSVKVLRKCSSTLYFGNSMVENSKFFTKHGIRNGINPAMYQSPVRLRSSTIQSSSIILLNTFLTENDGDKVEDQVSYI
# experiment_summary: In vivo inhibitory activity of 10 mg/kg compound in rats against elevation of BP caused by 5-HT (300 ug/kg, iv) through 5-hydroxytryptamine 2 receptor 1 hr after oral administration
# Type: functional, organism-based
# Set-up: dose 10 mg/kg
// False strictly below 80% in inhibition; True otherwise

# count of solved cases: 3
compound=O=c1nc2sccn2c(=O)n1CCN1CCC(=C(c2ccc(F)cc2)c2ccc(F)cc2)CC1 qualitative_label=True
compound=O=C(c1ccc(Cl)cc1)C1CCN(CCn2nc3n(c2=O)CCCC3)CC1 qualitative_label=True
compound="O=C(c1ccc(F)cc1)C1CCN(CCn2nc3n(c2=O)CCCC3)CC1c1ccc(F)cc1 (stereo unspecified)" qualitative_label=True

Request: Determine whether measured inhibition meets or exceeds 80% for O=C(c1ccc(F)cc1)C1CCN(CCn2nc3n(c2=O)CCCC3)CC1
Response: True

Request: Determine whether measured inhibition meets or exceeds 80% for O=c1n(CCN2CCC(=C(c3ccccc3)c3ccc(F)cc3)CC2)nc2n1CCCCC2
Response: True

Request: Determine whether measured inhibition meets or exceeds 80% for O=c1n(CCN2CCC(=C(c3ccccc3)c3ccccc3)CC2)nc2n1CCCCC2
Response: False

Request: Determine whether measured inhibition meets or exceeds 80% for O=c1n(CCN2CCC(=C(c3ccc(F)cc3)c3ccc(F)cc3)CC2)nc2n1CCC2
Response: False

Request: Determine whether measured inhibition meets or exceeds 80% for O=c1n(CCN2CCC(=C(c3ccc(F)cc3)c3ccc(F)cc3)CC2)nc2n1CCOC2
Response: False

Request: Determine whether measured inhibition meets or exceeds 80% for O=c1nc2n(c(=O)n1CCN1CCC(=C(c3ccc(F)cc3)c3ccc(F)cc3)CC1)CCCC2
Response: True

Request: Determine whether measured inhibition meets or exceeds 80% for O=C(c1ccc(F)cc1)C1CCN(CCn2nc3n(c2=O)CCOC3)CC1
Response: False

Request: Determine whether measured inhibition meets or exceeds 80% for N#CC(=C1CCN(CCn2nc3n(c2=O)CCCC3)CC1)c1ccc(F)cc1
Response: False

====

Give pA2 for every item shown.
# assayed_target: Adrenergic receptor alpha-1 (Rattus norvegicus, UniProt P15823+P23944+P43140)
# experiment_summary: In vitro antagonistic activity tested against the contraction induced by phenylephrine through Alpha-1 adrenergic receptor in rat thoracic aortic strips
# Assay type: functional
Numbers only.

A selection of reference data follows.
smiles_entry=N#CC(=C1CCN(CCn2nc3n(c2=O)CCCC3)CC1)c1ccc(F)cc1 assay_metric=pA2 measurement=6.3
smiles_entry=O=C(c1ccc(F)cc1)C1CCN(CCCn2c(=O)nc3n(c2=O)CCCC3)CC1 assay_metric=pA2 measurement=7.3
smiles_entry=O=C(c1ccc(F)cc1)C1CCN(CCn2c(=O)nc3n(c2=O)CCC3)CC1 assay_metric=pA2 measurement=7.1
smiles_entry=O=C(c1ccc(F)cc1)C1(O)CCN(CCn2nc3n(c2=O)CCCC3)CC1 assay_metric=pA2 measurement=7
smiles_entry=O=C(c1ccc(F)cc1)C1CCN(CCn2c(=O)nc3n(c2=O)CCCC3)CC1 assay_metric=pA2 measurement=6.9

Please supply pA2 for each of the following items, keeping them in order.
1. O=C(c1ccc(F)cc1)C1CCN(CCCn2nc3n(c2=O)CCCC3)CC1
2. O=c1n(CCN2CCC(=C(c3ccc(F)cc3)c3ccc(F)cc3)CC2)nc2n1CCSC2
3. O=c1n(CCN2CCC(=C(c3ccc(F)cc3)c3ccc(F)cc3)CC2)nc2ccccn12

Response:
1. 7.8
2. 7.5
3. 6.6

====

# assayed_target: Serotonin 2 (5-HT2) receptor (Rattus norvegicus, UniProt P30994+P08909+P14842)
# experiment_summary: In vitro antagonistic activity tested against the contraction induced by 5-HT through 5-hydroxytryptamine 2 receptor in rat thoracic aortic strips
# Assay type: functional
Give pA2 for every item shown.

A selection of reference data follows.
smiles_entry=O=C(c1ccc(F)cc1)C1CCN(CCn2nc3n(c2=O)CCCC3)CC1 measurement=7.4
smiles_entry=O=C(c1ccc(F)cc1)C1CCN(CCCn2nc3n(c2=O)CCCC3)CC1 measurement=7.7
smiles_entry=O=C(c1ccc(F)cc1)C1CCN(CCCn2c(=O)nc3n(c2=O)CCCC3)CC1 measurement=6.5
smiles_entry=O=C(c1ccc(F)cc1)C1CCN(CCn2nc3n(c2=O)CCOC3)CC1 measurement=7.4

Request: Sample O=c1nc2n(c(=O)n1CCN1CCC(=C(c3ccc(F)cc3)c3ccc(F)cc3)CC1)CCC2 — what was its pA2?
Response: 8.3

====

# assayed_target: Adrenergic receptor alpha-1 (Rattus norvegicus) (UniProt P15823+P23944+P43140)
# experiment_summary: In vivo inhibitory activity in rats against elevation of blood pressure caused by phenylephrine (30 ug/kg, iv) through alpha-1 receptor after 1 hr of oral administration at the dose of 10 mg/kg
# Assay type: functional, organism-based
# Parameters: dose 10 mg/kg
assay_metric: inhibition
The answer consists of two parts: a number and, after it, its unit.

A selection of reference data follows.
smiles_entry=O=c1n(CCN2CCC(=C(c3ccc(F)cc3)c3ccc(F)cc3)CC2)nc2n1CCCCC2 measurement=3%
smiles_entry=COc1ccc(C(=C2CCN(CCn3nc4n(c3=O)CCCC4)CC2)c2ccc(OC)cc2)cc1 measurement=4%
smiles_entry=O=c1n(CCN2CCC(=C(c3ccc(F)cc3)c3ccc(F)cc3)CC2)nc2n1CCC2 measurement=6%

Please supply inhibition for each of the following items, keeping them in order.
1. O=c1nc2n(c(=O)n1CCN1CCC(=C(c3ccc(F)cc3)c3ccc(F)cc3)CC1)CCCC2
2. O=C(c1ccc(F)cc1)C1CCN(CCn2c(=O)[nH]c3ccccc3c2=O)CC1
3. O=C(c1ccc(F)cc1)C1CCN(CCn2c(=O)nc3n(c2=O)CCCC3)CC1

Response:
1: 12%; 2: 91%; 3: 33%

====

# assayed_target: Adrenergic receptor alpha-1 (Rattus norvegicus, UniProt P15823+P23944+P43140)
# Sequence (P15823 whole entry): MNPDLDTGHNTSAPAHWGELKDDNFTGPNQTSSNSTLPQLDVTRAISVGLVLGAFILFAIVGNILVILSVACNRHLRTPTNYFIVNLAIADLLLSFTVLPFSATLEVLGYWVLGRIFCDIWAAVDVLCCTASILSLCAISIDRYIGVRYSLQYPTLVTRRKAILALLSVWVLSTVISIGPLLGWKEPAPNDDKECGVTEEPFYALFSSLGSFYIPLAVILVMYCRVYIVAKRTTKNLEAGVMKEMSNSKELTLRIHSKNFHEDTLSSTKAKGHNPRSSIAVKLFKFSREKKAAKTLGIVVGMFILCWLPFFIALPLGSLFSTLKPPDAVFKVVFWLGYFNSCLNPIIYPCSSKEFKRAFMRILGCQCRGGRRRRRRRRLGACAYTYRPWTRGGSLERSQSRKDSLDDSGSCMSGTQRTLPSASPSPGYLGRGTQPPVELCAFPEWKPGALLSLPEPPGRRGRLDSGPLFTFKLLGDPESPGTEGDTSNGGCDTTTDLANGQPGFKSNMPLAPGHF
# Sequence (P23944 whole entry): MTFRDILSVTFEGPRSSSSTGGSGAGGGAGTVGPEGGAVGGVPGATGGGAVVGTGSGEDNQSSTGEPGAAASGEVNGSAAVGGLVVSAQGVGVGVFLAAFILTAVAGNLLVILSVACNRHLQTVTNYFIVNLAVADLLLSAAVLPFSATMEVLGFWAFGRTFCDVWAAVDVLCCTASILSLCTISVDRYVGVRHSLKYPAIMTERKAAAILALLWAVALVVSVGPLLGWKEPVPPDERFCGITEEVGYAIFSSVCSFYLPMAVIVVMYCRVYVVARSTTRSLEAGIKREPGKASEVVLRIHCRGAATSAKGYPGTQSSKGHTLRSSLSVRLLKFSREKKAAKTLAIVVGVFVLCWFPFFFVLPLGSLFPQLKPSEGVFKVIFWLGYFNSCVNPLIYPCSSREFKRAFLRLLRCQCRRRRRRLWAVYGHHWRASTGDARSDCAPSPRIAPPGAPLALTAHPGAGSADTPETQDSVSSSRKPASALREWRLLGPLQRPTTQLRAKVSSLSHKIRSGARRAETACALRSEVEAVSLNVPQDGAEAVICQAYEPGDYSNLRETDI
# Sequence (P43140 whole entry): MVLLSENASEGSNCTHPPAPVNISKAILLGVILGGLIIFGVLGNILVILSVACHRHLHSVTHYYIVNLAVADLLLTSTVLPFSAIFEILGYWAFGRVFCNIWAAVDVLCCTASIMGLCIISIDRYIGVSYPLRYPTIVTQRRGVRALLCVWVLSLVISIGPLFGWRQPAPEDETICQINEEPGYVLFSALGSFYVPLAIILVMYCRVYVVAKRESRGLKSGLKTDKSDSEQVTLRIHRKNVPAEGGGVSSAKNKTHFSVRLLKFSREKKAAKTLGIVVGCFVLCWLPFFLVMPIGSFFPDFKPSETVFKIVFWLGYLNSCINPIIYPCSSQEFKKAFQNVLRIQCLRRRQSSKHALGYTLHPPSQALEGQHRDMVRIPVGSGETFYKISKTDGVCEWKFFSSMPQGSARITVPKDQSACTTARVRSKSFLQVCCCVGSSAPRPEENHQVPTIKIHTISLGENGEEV
# experiment_summary: In vitro antagonistic activity tested against the contraction induced by phenylephrine through Alpha-1 adrenergic receptor in rat thoracic aortic strips
# Format: functional
assay_metric: pA2

compound=O=C(c1ccc(F)cc1)C1CCN(CCn2c(=O)nc3ccccn3c2=O)CC1 measurement=7.5

Please supply pA2 for each of the following items, keeping them in order.
1. O=C(c1ccc(F)cc1)C1CCN(CCn2nc3n(c2=O)CCCC3)CC1c1ccc(F)cc1 (stereo unspecified)
2. O=C(c1ccc(Cl)cc1)C1CCN(CCn2nc3n(c2=O)CCCC3)CC1
3. O=C(c1ccc(F)cc1)C1(O)CCN(CCCn2nc3n(c2=O)CCCCC3)CC1
4. O=c1nc2sccn2c(=O)n1CCN1CCC(=C(c2ccc(F)cc2)c2ccc(F)cc2)CC1
5. O=C(c1ccc(F)cc1)C1(O)CCN(CCn2c(=O)nc3n(c2=O)CCCC3)CC1

Response:
1. 6.8
2. 7.2
3. 7.6
4. < 6
5. 7.2
